Data provenance: patent US20110046185A1

target.or.system: hCB1R (Homo sapiens)
Sequence (P21554 whole entry): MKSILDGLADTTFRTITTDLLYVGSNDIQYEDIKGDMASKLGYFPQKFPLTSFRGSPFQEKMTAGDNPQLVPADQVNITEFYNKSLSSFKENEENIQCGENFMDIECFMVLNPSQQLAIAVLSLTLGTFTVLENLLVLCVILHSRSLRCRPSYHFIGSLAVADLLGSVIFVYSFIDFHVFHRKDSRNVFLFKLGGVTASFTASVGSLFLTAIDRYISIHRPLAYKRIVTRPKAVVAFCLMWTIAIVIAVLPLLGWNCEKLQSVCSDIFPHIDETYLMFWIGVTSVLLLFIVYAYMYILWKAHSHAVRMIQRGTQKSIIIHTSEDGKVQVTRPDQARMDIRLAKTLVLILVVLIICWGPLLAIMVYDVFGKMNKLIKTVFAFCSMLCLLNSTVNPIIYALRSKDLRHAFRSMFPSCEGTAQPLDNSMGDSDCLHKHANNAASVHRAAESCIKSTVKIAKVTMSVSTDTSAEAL
experiment.description: Binding to the CB1 receptor ([3H]-SR141716A displacement, CHO-K1/cannabinoid CB1 protein)
Design: expressed in transfected cells
measurement.conditions: [3H]-SR141716A 0.5 nM; Ki from IC50 by Cheng-Prusoff; average of double determination; read-out: hCB1R; binding Ki
Classify: 1 when Ki is strictly less than 200 nM; -1 when Ki is not.

In: Lab note: confirm whether the reported Ki for this compound is below 200 nM, equality not counting. compound: CC1(C)C(=O)N(c2ccnc(C(F)(F)F)c2)C(=O)N1Cc1ccccc1Oc1ccccc1
Out: 1

In: Now try CC1(C)C(=O)N(c2ccc(C#N)c(C(F)(F)F)c2)C(=O)N1Cc1ccccc1[S+]([O-])c1ccc(Cl)cc1 (centres unmarked) .
Out: -1

In: Now try CC1(C)C(=O)N(c2ccnc(Cl)c2)C(=O)N1Cc1ccccc1Oc1ccccc1 .
Out: 1

In: Now try CC1(C)C(=O)N(c2ccc(C#N)c(C(F)(F)F)c2)C(=O)N1Cc1ccccc1Oc1ccc(C(=O)O)cc1 .
Out: -1

In: Now try CC1(C)C(=O)N(c2ccc(C#N)nc2)C(=O)N1Cc1ccccc1Oc1ccccc1 .
Out: -1

In: Now try CC1(C)C(=O)N(c2cc(C(F)(F)F)ccc2F)C(=O)N1Cc1ccccc1Oc1ccccc1 .
Out: -1

In: Now try CC1(C)C(=O)N(c2cccc(SC(F)(F)F)c2)C(=O)N1Cc1ccccc1Oc1ccccc1 .
Out: -1

In: Now try CC1(C)C(=O)N(c2cccc(C(F)(F)F)c2)C(=O)N1Cc1ccccc1Oc1ccccc1 .
Out: -1
